Taken from patent US6949544B2.

Target: activated JNK3 (Homo sapiens)
Construct: One such construct encodes amino acid residues Ser40-Glu402 of JNK3α1 and is preceded by Met and Gly residues; Met-Gly (initiator methionine and added glycine) (N)
Sequence (P53779 40-402): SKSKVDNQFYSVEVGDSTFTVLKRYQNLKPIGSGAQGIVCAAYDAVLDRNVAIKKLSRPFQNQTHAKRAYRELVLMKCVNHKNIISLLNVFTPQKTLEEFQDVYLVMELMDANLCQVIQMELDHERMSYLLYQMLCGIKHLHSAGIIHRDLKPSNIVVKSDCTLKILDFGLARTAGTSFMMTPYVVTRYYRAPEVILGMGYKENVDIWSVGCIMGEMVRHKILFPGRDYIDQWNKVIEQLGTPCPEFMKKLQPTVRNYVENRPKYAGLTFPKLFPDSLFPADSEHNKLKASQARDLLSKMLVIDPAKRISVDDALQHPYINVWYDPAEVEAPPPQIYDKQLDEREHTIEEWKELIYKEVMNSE
Experiment: JNK inhibition assay (spectrophotometric coupled-enzyme assay)
Details: 10 nM activated JNK3, 10 μM ATP; read-out: Activity in the JNK3 Inhibition Assay (Ki rating A-C)
pKi: −log10 of the molar value.
Readout type: pKi

Can you share its pKi? I mean this compound: "COc1cc(-c2ccnc(Nc3cccc(Br)c3)n2)cc(OC)c1OC" > 7.00

Can you share its pKi? I mean this compound: "COc1cc(-c2ccnc(Nc3ccccc3Cl)c2)cc(OC)c1OC" 6.00 to 7.00

Can you share its pKi? I mean this compound: COc1cc(-c2ccnc(Nc3cccc(OCc4ccccc4)c3)n2)cc(OC)c1OC [Compound I-56] < 6.00

Can you share its pKi? I mean this compound: "COc1cccc(Nc2nccc(-c3cc(OC)c4c(c3)OCO4)n2)c1" 6.00 to 7.00

Can you share its pKi? I mean this compound: "COc1cc(Nc2nccc(-c3cc(OC)c(OC)c(OC)c3)n2)cc(OC)c1" > 7.00

Can you share its pKi? I mean this compound: "CCOc1c(OC)cc(-c2ccnc(Nc3cccc(C)c3)n2)cc1OC" > 7.00

Can you share its pKi? I mean this compound: "COc1cc(-c2ccnc(Nc3ccc(Cl)nc3)n2)cc(OC)c1OC" > 7.00

Can you share its pKi? I mean this compound: "COc1cc(-c2ccnc(Nc3cccc(N(C)C)c3)n2)cc(OC)c1OC" 6.00 to 7.00

Can you share its pKi? I mean this compound: "COc1cc(-c2ccnc(Nc3ccc(F)cc3)n2)cc2c1OCCO2" > 7.00
